Measured Selectivity D3 vs. D2L*, listed per entry.
ASSAY_SYSTEM: human dopamine D2L receptors (long isoform) (Homo sapiens)
Construct: expressed in transfected cells
TEST_NAME: Dopamine D2L receptor binding, displacement of [125I]-iodospiperone
STATED_CONDITIONS: *Ki(D2L)/Ki(D3), HEK-293 membranes, 0.01 nM [125I]-iodospiperone
PARAMETER_MEASURED: Selectivity D3 vs. D2L*

* Cn1c(=O)ccn(CCCCN2CCN(c3cc(C(F)(F)F)nc(C(C)(C)C)n3)CC2)c1=O | 52
* CC(C)(C)c1nc(N2CCN(CCCCn3ccc(-c4ccc(F)cc4)nc3=O)CC2)cc(C(F)(F)F)n1.Cl | 37
* CC(C)(C)c1nc(N2CCN(CCCCn3ccc(C(F)(F)F)nc3=O)CC2)cc(C(F)(F)F)n1.Cl | 64
* Cc1cn(CC(C)CCN2CCN(c3cc(C(F)(F)F)nc(C(C)(C)C)n3)CC2)c(=O)[nH]c1=O (centres unmarked) [Example 37] | 126
* Cc1cn(CCCCN2CCN(c3cc(Cl)cc(Cl)c3)CC2)c(=O)[nH]c1=O | 65

* * *

ASSAY_SYSTEM: UniProt:P35462
Sequence (P35462 whole entry): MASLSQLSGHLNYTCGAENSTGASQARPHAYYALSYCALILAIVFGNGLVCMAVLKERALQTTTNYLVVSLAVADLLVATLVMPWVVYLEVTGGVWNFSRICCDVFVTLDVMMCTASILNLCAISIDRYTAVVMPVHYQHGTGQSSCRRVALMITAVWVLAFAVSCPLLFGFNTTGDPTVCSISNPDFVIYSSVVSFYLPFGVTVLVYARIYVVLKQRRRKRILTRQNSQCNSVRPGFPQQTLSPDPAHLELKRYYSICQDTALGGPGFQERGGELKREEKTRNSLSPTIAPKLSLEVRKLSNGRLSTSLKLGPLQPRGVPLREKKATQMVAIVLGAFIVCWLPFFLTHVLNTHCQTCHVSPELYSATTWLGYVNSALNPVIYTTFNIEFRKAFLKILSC
# Ki per record follows
PARAMETER_MEASURED: Ki (nM)

- CCCc1cc(N2CCN(CCCCn3cc(F)c(=O)[nH]c3=O)CC2)nc(C(C)(C)C)n1: 2.32
- CCCc1cc(N2CCN(CCCCn3ccc(C(C)(C)C)nc3=O)CC2)nc(C(C)(C)C)n1.Cl: 1.94
- CC(C)(C)c1nc(N2CCN(CCCCn3ccc(-c4ccsc4)nc3=O)CC2)cc(C(F)(F)F)n1: 4.56
- Cc1cn(CCCC(C)N2CCN(c3cc(C(F)(F)F)nc(C(C)(C)C)n3)CC2)c(=O)[nH]c1=O (stereo not shown): 9.25

* * *

ASSAY_SYSTEM: human dopamine D2L receptors (long isoform) (Homo sapiens, UniProt P14416)
Construct: expressed in transfected cells
Sequence (P14416 whole entry, canonical isoform): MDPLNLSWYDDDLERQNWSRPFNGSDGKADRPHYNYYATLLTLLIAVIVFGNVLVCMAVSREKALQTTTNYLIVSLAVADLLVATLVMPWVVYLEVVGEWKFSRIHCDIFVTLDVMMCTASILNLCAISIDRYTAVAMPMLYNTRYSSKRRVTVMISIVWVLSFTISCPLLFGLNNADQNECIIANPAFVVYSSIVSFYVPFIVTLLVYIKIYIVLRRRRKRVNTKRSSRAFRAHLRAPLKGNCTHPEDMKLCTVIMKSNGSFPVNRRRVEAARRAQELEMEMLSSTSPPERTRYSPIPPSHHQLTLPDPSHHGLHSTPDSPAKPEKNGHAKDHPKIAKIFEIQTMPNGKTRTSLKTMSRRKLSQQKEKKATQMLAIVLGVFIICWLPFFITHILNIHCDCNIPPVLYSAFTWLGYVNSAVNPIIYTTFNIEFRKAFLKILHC
TEST_NAME: Dopamine D2L receptor binding, displacement of [125I]-iodospiperone
STATED_CONDITIONS: *Ki(D2L)/Ki(D3), HEK-293 membranes, 0.01 nM [125I]-iodospiperone
Experimental: The substance to be tested was dissolved either in methanol/Chremophor® (BASF-AG) or in dimethyl sulfoxide and then diluted with water to the desired concentration. Triplicate mixtures were carried out. The incubation buffer contained 50 mM Tris, 120 mM NaCl, 5 mM KCl, 2 mM CaCl2, 2 mM MgCl2 and 0.1% bovine serum albumin. The buffer was adjusted to pH 7.4 with HCl. Measurement and Evaluation: […]
PARAMETER_MEASURED: Selectivity D3 vs. D2L*

* CCCc1cc(N2CCN(CCCCn3ccc(-c4ccc(C)cc4)nc3=O)CC2)nc(C(C)(C)C)n1 | 80
* Cc1ccc(-c2ccn(CCCCN3CCN(c4cc(C(F)(F)F)nc(C(C)(C)C)n4)CC3)c(=O)n2)cc1 | 37
* CC(C)(C)c1nc(N2CCN(CCCCn3cc(Cl)c(=O)[nH]c3=O)CC2)cc(C(F)(F)F)n1 | 97
* O=c1ccn(CCCCN2CCN(c3cccc(Cl)c3Cl)CC2)c(=O)[nH]1 | 48
* CCCc1cc(N2CCN(CCCCn3ccc(-c4ccccc4)nc3=O)CC2)nc(C(C)(C)C)n1 | 86
* CC(C)(C)c1nc(N2CCN(CCCCn3ccc(O)nc3=O)CC2)cc(C(F)(F)F)n1 | 104

Just for reference, patent US8008488B2 is where these values come from.
